Each entry below lists one item and its recorded normalized growth value.
- TEST_SUMMARY: chemical genetic growth profiling, strain panel (AID 1159580);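 note: tested at 20 µM; growth read once vehicle control cultures reached saturation at 30 °C; 1 = growth at the plate median or of vehicle wells; lower values mean less growth of the strain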
- RECORDED_CONDITIONS: S. cerevisiae deletion strains, growth OD, locus YLR102C, strain apc9, stronger effect = lower value
The campaign covered roughly 5,500 compounds. About 2,000 (36%) were called active. About 18% were inconclusive and are not listed. This is one part of the list.
Just the number, please.

input: Find the measured normalized growth of CC(C1OC(C)(C)C(O)C1O)[C@@H]1CC[C@]2(C)C3=CCC4C(C)(C)C(=O)CC[C@]4(C)C3CC[C@@]12C (stereo not given in full) and report it.
output: 1.03

input: Report normalized growth, nothing else, for this compound: `CCCCOc1cc(C(=O)NCCN(CC)CC)c2ccccc2n1`
output: 0.99

input: Please report the measured normalized growth for `COc1cccc2c(C)cc(=O)[nH]c12`
output: 0.942

input: Identify normalized growth associated with the compound `COc1cc(OC)c2c(=O)c(OC)c(-c3ccc(OC)c(OC)c3)oc2c1`
output: 1.01

input: Tell me normalized growth reported for CC1(C)C(=O)C=C[C@@]2(C)C1C[C@@H](O)[C@]1(C)C2CC[C@@]2(C)[C@H](c3ccoc3)OC(=O)[C@H]3O[C@]321 (stereo not given in full)
output: 0.983

====

Entries and their normalized growth values follow.
- TEST_SUMMARY: chemical genetic growth profiling, strain panel (AID 1159580);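 note: tested at 20 µM; growth read once vehicle control cultures reached saturation at 30 °C; 1 = growth at the plate median or of vehicle wells; lower values mean less growth of the strain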
- RECORDED_CONDITIONS: S. cerevisiae deletion strains, growth OD, locus YKL085W, strain MDH1 (second series), stronger effect = lower value
Screen size: about 5,500 compounds; about 2,000 (36%) were called active. About 18% were inconclusive and are not listed. This is one part of the list.
# answer = number (no unit)

{"COMPOUND": "COC(=O)c1c(C)cc(OC)cc1O", "normalized growth": 0.978}
{"COMPOUND": "CC1(C)C(=O)C=C[C@@]2(C)C1C[C@@H](O)[C@]1(C)C2CC[C@@]2(C)[C@H](c3ccoc3)OC(=O)[C@H]3O[C@]321 (some centres not stated)", "normalized growth": 0.973}

input: Could you please provide reported normalized growth for `Cc1cc(OC(=O)c2c(C)cc(OC(=O)c3c(C)cc(O)cc3O)cc2O)cc(O)c1C(=O)O` ? Thanks!
output: 0.975

input: Give normalized growth for the following compound: `COc1ccc(-c2cc(=O)c3c(O)cc(O[C@H]4O[C@H](CO[C@@H]5O[C@@H](C)[C@H](O)[C@@H](O)[C@H]5O)[C@@H](O)[C@H](O)[C@H]4O)cc3o2)cc1`
output: 0.999

input: Retrieve normalized growth measured for CC1(C)C2CC(=O)[C@]3(C)C(CC[C@@]4(C)[C@H](c5ccoc5)OC(=O)[C@H]5O[C@]543)[C@@]2(C)C(=O)C[C@H]1O (some centres not stated) and print it.
output: 1

input: Tell me its normalized growth given OCC(O)C(O)C(O)C(O)C(O)CO (configuration not stated) as the entry.
output: 1

input: Item `COc1cccc2c(C)cc(=O)[nH]c12` : provide normalized growth
output: 0.941

====

- TEST_SUMMARY: chemical genetic growth profiling, strain panel (AID 1159580);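 note: tested at 20 µM; growth read once vehicle control cultures reached saturation at 30 °C; 1 = growth at the plate median or of vehicle wells; lower values mean less growth of the strain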
- RECORDED_CONDITIONS: S. cerevisiae deletion strains, growth OD, locus YKL190W, strain CNB1, stronger effect = lower value
The campaign covered roughly 5,500 compounds. About 2,000 (36%) were called active. Roughly 18% stayed inconclusive and do not appear here. This is one part of the list.
MEASURED_PROPERTY: normalized growth
Just the number, please, no unit after it.

{"COMPOUND": "COc1ccc2c(c1)CCC1C2CCC2(C)C1C[C@@H](O)C2O (stereo not given in full)", "normalized growth": 1.01}

input: Annotate the compound COC(=O)C1OC(=O)C2OC23C1(C)CCC1C2(C)C(OC(C)=O)CC(OC(C)=O)C(C)(C)C2CC(=O)C13C (stereo not given) with its measured normalized growth.
output: 1

input: Indicate the recorded normalized growth value for this compound: CC1(C)C=CC(=O)[C@@]2(C)C1CC(=O)[C@]1(C)C2CC[C@@]2(C)[C@H](c3ccoc3)OC(=O)C3OC321 (stereo not given in full)
output: 0.975

input: Annotate the compound CNC(C)C(O)c1ccccc1 (stereo not given) with its measured normalized growth.
output: 1.01

input: Let me know recorded normalized growth for CC12CCC3c4ccc(OC(=O)c5ccccc5)cc4CCC3C1CCC2O (stereo not given) , thanks.
output: 1.01

input: Name the recorded normalized growth of the compound listed here: `C=C[C@H]1CN2CC[C@H]1C[C@@H]2[C@@H](OC(=O)OCC)c1ccnc2ccc(OC)cc12`
output: 1.01

input: Output measured normalized growth for this item: COc1ccc2c3c1OC1C(O)CC=C4C(C2)N(C)CCC431 (stereo not given)
output: 1.01
